This collection of values is drawn from patent US10570122B2.

Below: a set of entries, each annotated with reported IC50.
Test system: KARPAS299
Assay: CellTiter-Blue cell-based survival/proliferation assay, KARPAS299
Settings: Homo sapiens, KARPAS-299, Lymphoma cell line KARPAS299, 48 h, read-out: Anti-tumoral activity (measured IC50) KARPAS299

LINE NOTATION | TEST SYSTEM | IC50
CNC(=O)c1ccc(C)c(Nc2ncc(-c3ccc(-n4cccn4)cc3)o2)c1 | KARPAS299 | 100 to 500 nM
CCOCc1ccc(C)c(Nc2nnc(-c3ccc(N4CCNC4=O)cc3)o2)c1 | KARPAS299 | ≤ 100 nM
CCOCc1ccc(C)c(Nc2ncc(-c3ccc(-c4ccccn4)cc3)o2)c1 | KARPAS299 | 500 to 1000 nM
CCOCc1ccc(C)c(Nc2ncc(-c3ccc(-n4cccn4)c(OC)c3)o2)c1 | KARPAS299 | > 1000 nM
Cc1ccc(COCCN)cc1Nc1ncc(-c2ccc(-n3cccn3)cc2)o1 | KARPAS299 | > 1000 nM
CCOCc1cc(C)cc(Nc2ncc(-c3ccc(-n4cccn4)cc3)o2)c1 | KARPAS299 | 100 to 500 nM
Cc1ccc(C(=O)NCCN2CCN(C)CC2)cc1Nc1ncc(-c2ccc(-n3cccn3)cc2)o1 | KARPAS299 | > 1000 nM
CCOCc1ccc(C)c(Nc2ncc(-c3ccc(-n4cccn4)nc3)o2)c1 | KARPAS299 | ≤ 100 nM
CCOCc1cccc(Nc2ncc(-c3ccc(-n4cccn4)cc3)o2)c1 | KARPAS299 | ≤ 100 nM

* * *

Test system: HEPG2
Test: CellTiter-Blue cell-based survival/proliferation assay, HEPG2
Settings: Homo sapiens; HEPG2 liver tumor cell line, 48 h
pIC50: −log10 of the molar value.
Below: a set of entries, each annotated with reported pIC50.

LINE NOTATION | pIC50
CCOCc1ccc(C)c(Nc2ncc(-c3ccc(-n4cccn4)cc3)o2)c1 | 6.00 to 6.30
Cc1ccc(OCCN2CCOCC2)cc1Nc1ncc(-c2ccc(-n3cccn3)cc2)o1 | < 6.00
CCOCc1ccc(C)c(Nc2ncc(-c3ccc(-n4cccn4)cc3)s2)c1 | < 6.00
CCOCc1ccc(C)c(Nc2ncc(-c3ccc(-n4ccnc4)cc3)o2)c1 | < 6.00
CCOCc1ccc(C)c(Nc2ncc(-c3ccc(N4C(=O)NC[C@H]4C)cc3)o2)c1 | < 6.00

* * *

System: KARPAS299
Experiment: CellTiter-Blue cell-based survival/proliferation assay, KARPAS299
Conditions: Homo sapiens, KARPAS-299, Lymphoma cell line KARPAS299, 48 h, read-out: Anti-tumoral activity (measured IC50) KARPAS299

MOLECULE | IC50
CCOCc1ccc(C)c(Nc2ncc(-c3ccc(-n4cc(C)cn4)cc3)o2)c1 [Example 040] | > 1000 nM
CCOCc1ccc(C)c(Nc2ncc(-c3ccc(-n4cncn4)cc3)o2)c1 [Example 034] | 100 to 500 nM
CCOCc1ccc(C)c(Nc2ncc(-c3ccc(N4CCNC4=O)cc3)o2)c1 [Example 006] | ≤ 100 nM
CCOCc1ccc(C)c(Nc2ncc(-c3ccc(N4CCNC4=O)cc3)s2)c1 [Example 014] | 100 to 500 nM
CCOCc1ccc(C)c(Nc2ncc(-c3ccc(-n4ccccc4=O)cc3)o2)c1 [Example 049] | > 1000 nM
Cc1ccc(COCCO)cc1Nc1ncc(-c2ccc(-n3cccn3)cc2)o1 [Example 026] | > 1000 nM
COc1ccc(C)c(Nc2ncc(-c3ccc(-n4cccn4)cc3)s2)c1 [Example 011] | > 1000 nM
CCOCc1ccc(C)c(Nc2ncc(-c3ccc(-n4ccnn4)cc3)o2)c1 [Example 035] | 500 to 1000 nM
Cc1ccc(CO)cc1Nc1ncc(-c2ccc(-n3cccn3)cc2)o1 [Example 027] | > 1000 nM
Cc1ccc(CO)cc1Nc1nc(-c2ccc(-n3cccn3)cc2)cs1 [Example 016] | > 1000 nM
CC(=O)NCCOCc1ccc(C)c(Nc2ncc(-c3ccc(-n4cccn4)cc3)o2)c1 [Example 025] | > 1000 nM
CCOCc1ccc(C)c(Nc2ncc(-c3ccc(-n4nccn4)cc3)o2)c1 [Example 036] | ≤ 100 nM
COc1ccc(C)c(Nc2ncc(-c3ccc(N4CCNC4=O)cc3)s2)c1 [Example 013] | 500 to 1000 nM
COc1ccc(C)c(Nc2ncc(-c3ccc(-n4cccn4)cc3)o2)c1 [Example 023] | 100 to 500 nM
CCOCc1ccc(C)c(Nc2ncc(-c3ccc(N4CCN(CCNC(C)=O)C4=O)cc3)o2)c1 [Example 046] | > 1000 nM
CCOCc1ccc(C)c(Nc2ncc(-c3ccc(N4CCN(C)C4=O)cc3)o2)c1 [Example 044] | 100 to 500 nM
CCOCc1cc(C)cc(Nc2nc(-c3ccc(N4CCNC4=O)cc3)cs2)c1 [Example 018] | ≤ 100 nM
CCOCc1cc(COCC)cc(Nc2ncc(-c3ccc(-n4cccn4)cc3)o2)c1 [Example 022] | 100 to 500 nM
Cc1ccc(OCCN2CCOCC2)cc1Nc1ncc(-c2ccc(-n3cccn3)cc2)o1 [Example 029] | > 1000 nM
CCOCc1ccc(C)c(Nc2ncc(-c3ccc(-n4ccc(C)n4)cc3)o2)c1 [Example 039] | 500 to 1000 nM
CCOCc1ccc(C)c(Nc2nc(-c3ccc(-n4ccnc4)cc3)cs2)c1 [Example 017] | > 1000 nM
CCOCc1ccc(C)c(Nc2ncc(-c3ccc(N4CCN(CCN)C4=O)cc3)o2)c1 [Example 045] | > 1000 nM
CCOCc1ccc(C)c(Nc2nc(-c3ccc(-n4cccn4)cc3)cs2)c1 [Example 015] | ≤ 100 nM
CCOCc1ccc(C)c(Nc2ncc(-c3ccc(-c4nccs4)cc3)o2)c1 [Example 038] | > 1000 nM
CCOCc1ccc(C)c(Nc2ncc(-c3ccc(-c4ccc[nH]c4=O)cc3)o2)c1 [Example 050] | 100 to 500 nM
CCOCc1ccc(C)c(Nc2ncc(-c3ccc(-n4cccn4)cc3)o2)c1 [Example 033] | ≤ 100 nM
CCOCc1ccc(C)c(Nc2nc(-c3ccc(N4CCNC4=O)cc3)cs2)c1 [Example 003] | ≤ 100 nM
Cc1ccc(C(=O)NCCN2CCOCC2)cc1Nc1ncc(-c2ccc(-n3cccn3)cc2)o1 [Example 005] | > 1000 nM
CCOCc1ccc(C)c(Nc2nc(-c3ccc(N4CCNC4=O)cc3)ns2)c1 [Example 010] | ≤ 100 nM
Cc1ccc(OCCN(C)C)cc1Nc1ncc(-c2ccc(-n3cccn3)cc2)o1 [Example 030] | > 1000 nM
CCOCc1ccc(C)c(Nc2ncc(-c3ccc(-n4cccn4)cc3)s2)c1 [Example 004] | > 1000 nM
CCOCc1ccc(C)c(Nc2ncc(-c3ccc(-n4ccnc4)cc3)o2)c1 [Example 037] | > 1000 nM
COc1ccc(C)c(Nc2ncc(-c3ccc(-n4cccn4)nc3)o2)c1 [Example 001] | 500 to 1000 nM

* * *

Below: a set of entries, each annotated with reported IC50.
System: CLS354
Test: CellTiter-Blue cell-based survival/proliferation assay, CLS354
Settings: Homo sapiens, CLS-354; CLS354_4 head & neck tumor cell line, 48 h
MEASURED METRIC: IC50

LINE NOTATION | MEASURED METRIC | DATA VALUE
COc1ccc(C)c(Nc2ncc(-c3ccc(N4CCNC4=O)cc3)s2)c1 | IC50 | > 1 µM
CCOCc1ccc(C)c(Nc2ncc(-c3ccc(N4CCN(CCN)C4=O)cc3)o2)c1 | IC50 | > 1 µM
CCOCc1ccc(C)c(Nc2ncc(-c3ccc(-n4ccccc4=O)cc3)o2)c1 | IC50 | > 1 µM
CCOCc1ccc(C)c(Nc2nnc(-c3ccc(N4CCNC4=O)cc3)o2)c1 | IC50 | 0.1 to 0.5 µM
CC(=O)NCCOCc1ccc(C)c(Nc2ncc(-c3ccc(-n4cccn4)cc3)o2)c1 | IC50 | > 1 µM
CCOCc1ccc(C)c(Nc2nc(-c3ccc(-n4ccnc4)cc3)cs2)c1 | IC50 | > 1 µM
CCOCc1ccc(C)c(Nc2ncc(-c3ccc(-n4nccn4)cc3)o2)c1 | IC50 | ≤ 0.1 µM
CCOCc1ccc(C)c(Nc2ncc(-c3ccc(-n4nccc4C)cc3)o2)c1 | IC50 | > 1 µM
CCOCc1ccc(C)c(Nc2ncc(-c3ccc(-n4nc[nH]c4=O)cc3)o2)c1 | IC50 | > 1 µM
CCOCc1ccc(C)c(Nc2ncc(-c3ccc(N4C(=O)NC[C@H]4C)cc3)o2)c1 | IC50 | ≤ 0.1 µM
CCOCc1cc(Nc2ncc(-c3ccc(N4CCNC4=O)cc3)o2)cc(OCCO)c1 | IC50 | ≤ 0.1 µM
CCOCc1ccc(C)c(Nc2nc(-c3ccc(-n4cccn4)cc3)cs2)c1 | IC50 | ≤ 0.1 µM
CCOCc1ccc(C)c(Nc2ncc(-c3ccc(-c4cn[nH]c4)cc3)o2)c1 | IC50 | > 1 µM
CCOCc1ccc(C)c(Nc2ncc(-c3ccc(-n4c(C)n[nH]c4=O)cc3)o2)c1 | IC50 | > 1 µM
Cc1ccc(COCCO)cc1Nc1ncc(-c2ccc(-n3cccn3)cc2)o1 | IC50 | > 1 µM
Cc1ccc(C(=O)NCCN2CCN(C)CC2)cc1Nc1ncc(-c2ccc(-n3cccn3)cc2)o1 | IC50 | > 1 µM
CCOCc1ccc(C)c(Nc2ncc(-c3ccc(-n4cccn4)cc3)o2)c1 | IC50 | ≤ 0.1 µM
CCOCc1ccc(C)c(Nc2ncc(-c3ccc(-c4ccnn4C)cc3)o2)c1 | IC50 | > 1 µM
